Biological target: mTORC1 (Homo sapiens)
Experiment: Inhibition of mTORC1 in human PC3 cells assessed as reduction in phosphorylated 4E-BP1Thr37/46 level after 90 mins by immunofluorescence assay
Type: cell-based, PC-3
pIC50: −log10 of the molar value.
# pIC50 annotations

- structureSmilesString: "O=C(c1nnc[nH]1)N1[C@@H]2CC[C@H]1C[C@H](c1nc3c(-c4ccc(-c5ncc[nH]5)nc4)cnn3c3[nH]ccc13)C2"
  pIC50: 9.00
- structureSmilesString: "Cc1n[nH]c2c1c([C@@H]1C[C@H]3CC[C@@H](C1)N3C(=O)c1nnc[nH]1)nc1c(-c3ccc(-c4ccccc4)nc3)cnn12"
  pIC50: 7.00

Where do the numbers come from? From ChEMBL document CHEMBL2331287.
